// endpoint Ki / system UniProtKB P13053
Sequence (P13053 whole entry, looked up): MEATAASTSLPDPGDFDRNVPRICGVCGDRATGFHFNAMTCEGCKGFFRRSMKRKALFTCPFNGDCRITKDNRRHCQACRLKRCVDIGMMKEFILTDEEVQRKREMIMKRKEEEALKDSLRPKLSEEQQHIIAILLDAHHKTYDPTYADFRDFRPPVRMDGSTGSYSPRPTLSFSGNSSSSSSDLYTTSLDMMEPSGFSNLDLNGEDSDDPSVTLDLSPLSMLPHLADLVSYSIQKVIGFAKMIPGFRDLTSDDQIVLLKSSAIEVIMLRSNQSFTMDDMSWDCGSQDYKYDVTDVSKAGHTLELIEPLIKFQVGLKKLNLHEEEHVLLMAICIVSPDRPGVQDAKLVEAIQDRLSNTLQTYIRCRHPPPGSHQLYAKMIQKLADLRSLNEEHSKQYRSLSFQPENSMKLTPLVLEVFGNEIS
I only need the number, in pM, no unit after it.

{"columns": ["compound", "recorded endpoint", "test result"],
 "data": [
  ["C=C1[C@H](O)CC(=C/C=C2\\CCC[C@@]3(C)C2CCC3[C@H](C)CCCC)C[C@H]1O (some centres not stated) [Vitamin D analog, 8]", "Ki", 300]
]}

Now look at this entry.
Given C=C1[C@H](O)CC(=C/C=C2\CCC[C@@]3(C)C2CCC3[C@H](C)CCCCO)C[C@H]1O (some centres not stated) [Vitamin D analog, 6] , state its recorded Ki.
200
